FYI, the data here is from patent US8906925B2.

Biological target: human dopamine D2L receptor (Homo sapiens)
Assay: Dopamine D2L radioligand binding ([3H]Spiperone)
Settings: compound at 1 μM; […] [3H]Spiperone; read-out: Inhibition of ligand binding, Dopamine D2L (percent inhibition of specific binding)
Examples of compounds with documented inhibition at 1 µM follow.
Return type: number; implicit unit %.

Consider the following illustrative entries.
C/C(=C\n1c2c(c3cc(N4CCCCC4)ccc31)CN(C)CC2)c1ccncc1 ... 20
CSc1ccc(/C(C)=C/n2c3c(c4cc(C)ccc42)CN(C)CC3)cc1 ... 71
Cc1ccc2c(c1)c1c(n2C#Cc2cccs2)CCN(C)C1 ... 56
CN1CCc2c(c3cc(C(=O)O)ccc3n2C#Cc2ccc(F)cc2)C1 ... -2

Task: Given C=C(Cn1c2c(c3cc(Cl)ccc31)CN(C)C(C)C2)c1ccncc1 (stereo not drawn) , report its inhibition at 1 µM on human dopamine D2L receptor (Homo sapiens).
Result: 49

Task: Given C/C(=C\n1c2c(c3cc(N(C)C)ccc31)CN(C)CC2)c1ccncc1 , report its inhibition at 1 µM on human dopamine D2L receptor (Homo sapiens).
Result: 35

Task: Given C/C(=C/n1c2c(c3cc(Cl)ccc31)CN(C)CC2)C1CCCCC1 , report its inhibition at 1 µM on human dopamine D2L receptor (Homo sapiens).
Result: 64

Task: Given Cc1ccc2c(c1)c1c(n2/C=C(\c2ccccc2)c2ccncc2)CCN(C)C1 , report its inhibition at 1 µM on human dopamine D2L receptor (Homo sapiens).
Result: 56

Task: Given Cc1ccc2c(c1)c1c(n2C#Cc2cccc(N(C)C)c2)CCN(C)C1 , report its inhibition at 1 µM on human dopamine D2L receptor (Homo sapiens).
Result: 9

Task: Given C/C(=C\n1c2c(c3cc(C)ccc31)CNCC2)c1cc[n+](C)cc1 , report its inhibition at 1 µM on human dopamine D2L receptor (Homo sapiens).
Result: 2

Task: Given C/C(=C/n1c2c(c3cc(C)ccc31)CN(C)CC2)c1cccc(C(=O)N(C)C)c1 , report its inhibition at 1 µM on human dopamine D2L receptor (Homo sapiens).
Result: 15

Task: Given Cc1ccc2c(c1)c1c(n2C/C(=C/C(=O)O)c2ccc(F)cc2)CCN(C)C1 , report its inhibition at 1 µM on human dopamine D2L receptor (Homo sapiens).
Result: 0

Task: Given Cc1ccc2c(c1)c1c(n2C#Cc2ccncn2)CCN(C)C1 , report its inhibition at 1 µM on human dopamine D2L receptor (Homo sapiens).
Result: 18

Task: Given Cc1ccc2c(c1)c1c(n2/C=C(\F)c2cccs2)CCN(C)C1 , report its inhibition at 1 µM on human dopamine D2L receptor (Homo sapiens).
Result: 70

Task: Given COc1ccc(C#Cn2c3c(c4cc(C)ccc42)CN(C)CC3)cn1 , report its inhibition at 1 µM on human dopamine D2L receptor (Homo sapiens).
Result: 13

Task: Given CN1CCc2c(c3cccc(Cl)c3n2C[C@](C)(O)c2ccncc2)C1 , report its inhibition at 1 µM on human dopamine D2L receptor (Homo sapiens).
Result: 1

Task: Given COC(=O)c1ccc2c(c1)c1c(n2C#Cc2ccc(F)cc2)CCN(C)C1 , report its inhibition at 1 µM on human dopamine D2L receptor (Homo sapiens).
Result: 72

---

Molecular target: human recombinant adrenergic α2B receptor (Homo sapiens, UniProt P18089)
Construct: expressed in transfected cells; host or cells: Chinese hamster ovary (CHO-K1) cells
Sequence (P18089 whole entry): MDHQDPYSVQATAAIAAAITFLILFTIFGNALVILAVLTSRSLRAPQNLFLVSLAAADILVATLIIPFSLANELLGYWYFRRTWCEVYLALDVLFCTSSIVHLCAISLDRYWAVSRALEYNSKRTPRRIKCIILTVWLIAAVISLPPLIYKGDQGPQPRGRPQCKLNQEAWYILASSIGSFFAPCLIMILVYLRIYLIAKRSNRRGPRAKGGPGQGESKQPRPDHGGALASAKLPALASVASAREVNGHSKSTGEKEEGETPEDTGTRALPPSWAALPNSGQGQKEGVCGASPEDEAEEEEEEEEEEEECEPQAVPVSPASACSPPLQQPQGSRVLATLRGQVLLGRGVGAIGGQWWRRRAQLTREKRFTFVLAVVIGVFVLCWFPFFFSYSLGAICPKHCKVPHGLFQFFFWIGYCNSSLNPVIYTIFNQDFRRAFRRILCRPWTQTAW
Assay: Adrenergic α2B radioligand binding ([3H]Rauwolscine)
Details: compound at 1 μM; […] [3H]Rauwolscine; read-out: Inhibition of ligand binding, Adrenergic α2B (percent inhibition of specific binding)
Mark 0.0 for inhibition at 1 µM values under 40%, and 1.0 for everything at or above.

CN1CCc2c(c3cc(C(=O)O)ccc3n2C#Cc2ccc(F)cc2)C1 ... 0.0
CCC/C=C(/Cn1c2c(c3cc(Cl)ccc31)CN(C)CC2)c1ccc(F)cc1 ... 1.0
CN1CCc2c(c3cc(Cl)ccc3n2C#Cc2ccc(Cl)cc2)C1 ... 1.0

Would you kindly look at the next entry?
Task: Decide: is the reported value of inhibition at 1 µM for Cc1ccc2c(c1)c1c(n2C/C(=C/C(=O)O)c2ccc(F)cc2)CCN(C)C1 equal to or greater than 40%?
Result: 1.0

---

Molecular target: human recombinant adrenergic α1D receptor (Homo sapiens, UniProt P25100)
Construct: expressed in transfected cells; host or cells: human embryonic kidney (HEK-293) cells
Sequence (P25100 whole entry): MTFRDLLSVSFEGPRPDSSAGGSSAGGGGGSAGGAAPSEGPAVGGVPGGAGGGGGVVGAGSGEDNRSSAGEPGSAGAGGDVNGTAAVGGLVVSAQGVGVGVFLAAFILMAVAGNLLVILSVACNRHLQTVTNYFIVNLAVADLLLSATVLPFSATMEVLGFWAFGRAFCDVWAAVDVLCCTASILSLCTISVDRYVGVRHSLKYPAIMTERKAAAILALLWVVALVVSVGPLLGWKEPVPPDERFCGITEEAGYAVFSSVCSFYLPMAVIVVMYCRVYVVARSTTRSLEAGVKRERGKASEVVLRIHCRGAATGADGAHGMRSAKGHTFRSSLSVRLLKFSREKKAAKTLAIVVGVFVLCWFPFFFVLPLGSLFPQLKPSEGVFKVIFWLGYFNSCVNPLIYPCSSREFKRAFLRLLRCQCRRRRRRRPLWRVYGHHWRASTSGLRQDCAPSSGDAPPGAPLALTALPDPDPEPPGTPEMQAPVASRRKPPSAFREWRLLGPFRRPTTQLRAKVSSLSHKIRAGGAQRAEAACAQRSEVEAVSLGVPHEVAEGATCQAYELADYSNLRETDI
Assay: Adrenergic α1D radioligand binding ([3H]Prozosin)
Conditions: percent inhibition of specific binding; compound at 1 μM; read-out: Inhibition of ligand binding, Adrenergic α1D
Examples of compounds with documented inhibition at 1 µM follow.

Consider the following illustrative entries.
CCN1CCc2c(c3cc(C)ccc3n2CC(O)c2ccc(C)cc2)C1 (racemic) [Compound 51] ... 89%
C/C(=C\n1c2c(c3cc(Cl)ccc31)CN(C)CC2)c1ccccc1 [compound 106] ... 92%

Next up:
Task: Write down inhibition at 1 µM measured for item C=C(Cn1c2c(c3cc(Cl)ccc31)CN(C)CC2)c1ccc(F)cc1 [Compound 128]
Result: 91%

---

Target: human dopamine D2L receptor (Homo sapiens, UniProt P14416)
Sequence (P14416 whole entry): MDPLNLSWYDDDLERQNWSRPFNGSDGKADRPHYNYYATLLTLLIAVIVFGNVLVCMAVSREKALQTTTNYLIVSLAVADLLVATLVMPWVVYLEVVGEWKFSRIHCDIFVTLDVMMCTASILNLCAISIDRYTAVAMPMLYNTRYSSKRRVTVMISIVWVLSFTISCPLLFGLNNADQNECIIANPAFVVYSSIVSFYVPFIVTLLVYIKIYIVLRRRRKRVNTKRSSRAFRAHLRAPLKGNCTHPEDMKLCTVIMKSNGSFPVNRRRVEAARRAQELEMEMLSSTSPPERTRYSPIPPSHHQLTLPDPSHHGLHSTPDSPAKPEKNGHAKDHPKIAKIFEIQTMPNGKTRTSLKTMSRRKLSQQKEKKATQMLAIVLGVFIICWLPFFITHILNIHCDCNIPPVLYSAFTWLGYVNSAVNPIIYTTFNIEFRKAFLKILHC
Experiment: Dopamine D2L radioligand binding ([3H]Spiperone)
Settings: compound at 1 μM; […] [3H]Spiperone; read-out: Inhibition of ligand binding, Dopamine D2L (percent inhibition of specific binding)
Text: Non-specific binding was estimated in the presence of […] Haloperidol. Receptor proteins were filtered and washed, the filters were then counted to determine [^3H]Spiperone specifically bound. […] Biochemical assay results are presented as the percent inhibition of specific binding in Table 9.
EXPERIMENTAL READOUT: inhibition at 1 µM (%)
Return type: number; implicit unit %.

C/C(=C(/C)n1c2c(c3cc(C)ccc31)CN(C)CC2)c1ccc(F)cc1 [compound 421] ... 79
CN1CCc2c(c3cc(Cl)ccc3n2/C=C(/c2ccccc2)c2ccncc2)C1 [Compound No. 461] ... 78
CCCCNc1ccc2c(c1)c1c(n2/C=C(\C)c2ccc(F)cc2)CCN(C)C1 [compound 432] ... 79
CNc1ccc2c(c1)c1c(n2/C=C(\C)c2ccc(F)cc2)CCN(C)C1 [compound 431] ... 80
Cc1ccc2c(c1)c1c(n2/C=C(/c2ccccc2)c2ccncc2)CCN(C)C1 [compound 453] ... 51
CNc1ccc2c(c1)c1c(n2/C=C(\C)c2ccncc2)CCN(C)C1 [compound 433] ... 61

Task: Write down inhibition at 1 µM measured for item C/C(=C\c1ccccc1)n1c2c(c3cc(C)ccc31)CN(C)CC2 [compound 428]
Result: 57

---

Target: human recombinant histamine H2 receptor (Homo sapiens)
Construct: expressed in transfected cells; host or cells: Chinese hamster ovary (CHO) K1 cells
Sequence (P25021 whole entry): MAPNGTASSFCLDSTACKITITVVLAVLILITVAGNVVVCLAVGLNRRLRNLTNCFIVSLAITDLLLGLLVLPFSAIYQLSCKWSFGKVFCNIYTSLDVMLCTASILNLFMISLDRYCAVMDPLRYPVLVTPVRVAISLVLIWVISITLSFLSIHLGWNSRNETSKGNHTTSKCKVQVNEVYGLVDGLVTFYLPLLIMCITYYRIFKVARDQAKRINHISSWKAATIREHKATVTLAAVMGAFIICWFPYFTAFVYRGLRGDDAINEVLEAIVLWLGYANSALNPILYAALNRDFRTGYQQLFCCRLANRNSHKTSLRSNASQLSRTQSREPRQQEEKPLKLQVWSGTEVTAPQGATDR
Assay: Histamine H2 radioligand binding ([125I]Aminopotentidine)
Conditions: read-out: Histamine Binding (1 μM) H2, percent inhibition of specific binding, 1 μM
EXPERIMENTAL READOUT: inhibition at 1 µM (%)
Return type: number; implicit unit %.

Consider the following illustrative entries.
C/C(=C\n1c2c(c3ccc(Cl)cc31)CN(C)CC2)c1ccncc1 ... 82
C/C(=C\n1c2c(c3cc(F)ccc31)CN(C)CC2)c1ccncc1 ... 61
COc1ccc(/C(C)=C/n2c3c(c4cc(C)ccc42)CN(C)CC3)cc1 ... 99
C/C(=C\n1c2c(c3ccccc31)CN(C)CC2)c1ccncc1 ... 50
CN1CCc2c(c3cc(C(=O)O)ccc3n2C#Cc2ccc(F)cc2)C1 ... -3

Task: Write down inhibition at 1 µM measured for item C/C(=C\n1c2c(c3cc(C)ccc31)CN(C)CC2)c1ccncc1
Result: 30

Task: Write down inhibition at 1 µM measured for item C/C(=C\n1c2c(c3ccccc31)CN(C)CC2)c1ccc(F)cc1
Result: 95

Task: Write down inhibition at 1 µM measured for item C/C(=C/n1c2c(c3cc(C)ccc31)CN(C)CC2)c1cccc(F)c1
Result: 98

Task: Write down inhibition at 1 µM measured for item Cc1ccc2c(c1)c1c(n2C#Cc2ccc(F)cc2)CCN(C)C1
Result: 94

Task: Write down inhibition at 1 µM measured for item C/C(=C\n1c2c(c3cc(Cl)ccc31)CN(C)CC2)c1cc(Cl)cc(Cl)c1
Result: 98

Task: Write down inhibition at 1 µM measured for item CNC(=O)c1ccc2c(c1)c1c(n2C#Cc2ccc(F)cc2)CCN(C)C1
Result: 10

---

Target: human recombinant serotonin (5-Hydroxytryptamine) 5-HT6 receptor (Homo sapiens)
Construct: expressed in transfected cells; host or cells: human HeLa cells
Sequence (P50406 whole entry): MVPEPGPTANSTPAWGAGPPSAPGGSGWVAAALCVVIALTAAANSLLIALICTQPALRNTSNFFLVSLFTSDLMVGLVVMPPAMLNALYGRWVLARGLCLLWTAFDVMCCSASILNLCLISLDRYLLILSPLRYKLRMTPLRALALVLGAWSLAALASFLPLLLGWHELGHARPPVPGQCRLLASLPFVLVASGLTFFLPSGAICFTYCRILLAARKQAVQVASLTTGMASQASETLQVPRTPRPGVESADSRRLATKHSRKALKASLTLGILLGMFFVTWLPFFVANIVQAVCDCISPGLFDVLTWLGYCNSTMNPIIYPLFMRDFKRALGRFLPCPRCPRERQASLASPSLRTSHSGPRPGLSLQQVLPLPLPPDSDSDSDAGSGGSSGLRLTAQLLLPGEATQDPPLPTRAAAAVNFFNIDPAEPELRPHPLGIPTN
Experiment: Serotonin 5-HT6 radioligand binding ([3H]LSD)
Conditions: compound at 1 μM; read-out: Inhibition of ligand binding, Serotonin 5-HT6 (percent inhibition of specific binding)
EXPERIMENTAL READOUT: inhibition at 1 µM (%)
Return type: number; implicit unit %.

Consider the following illustrative entries.
CN1CCc2c(c3cc(Cl)ccc3n2C/C(=C/CCO)c2ccc(F)cc2)C1 ... 102
CN1CCc2c(c3cc(Cl)ccc3n2/C=C(/c2ccc(F)cc2)C2CC2)C1 ... 104
CN1CCc2c(c3ccc(Cl)cc3n2CC(C)(O)c2ccncc2)C1 (stereo not drawn) ... 31
C/C(=C\n1c2c(c3cc(C)ccc31)CN(C)CC2)c1ccc(Cl)cc1 ... 98
C/C(=C/n1c2c(c3cc(C)ccc31)CN(C)CC2)c1cccc(F)c1 ... 103

Task: Write down inhibition at 1 µM measured for item C/C(=C\n1c2c(c3cc(Cl)ccc31)CN(C)CC2)c1cccnc1
Result: 77
